System: HepG2 cells (human hepatocellular carcinoma)
EXPERIMENT: Cytotoxicity, MTT assay, HepG2
Type: cell-based
REPORTED_CONDITIONS: HepG2, MTT, 24 h, mean ± SEM, n = 3, read-out: Hep G2 IC50
ASSAY_ENDPOINT: pIC50
# reply with the number alone; pIC50 is -log10 of concentration in mol/L

Oc1ccccc1C=NCCCCCCCCNc1c2c(nc3c1CCC3)CCCC2 has a reported pIC50 of 4.02

Value of measured pIC50 for the entry O=C(NCCCCNc1c2c(nc3c1CCC3)CCCC2)c1ccccc1O : 4.13

# molecule O=C(NCCCCCCCCNc1c2c(nc3c1CCC3)CCCC2)c1ccccc1O ; its pIC50 = 5.16

For this molecule ( Oc1ccccc1CNCCCCNc1c2c(nc3c1CCC3)CCCC2 [10a] ), measured pIC50 is 4.56

Origin of values: paper PMC11650361
